target: Ephrin type-B receptor 1 (Homo sapiens) (UniProt P54762); conditions: at 10 µM
Sequence (P54762 whole entry): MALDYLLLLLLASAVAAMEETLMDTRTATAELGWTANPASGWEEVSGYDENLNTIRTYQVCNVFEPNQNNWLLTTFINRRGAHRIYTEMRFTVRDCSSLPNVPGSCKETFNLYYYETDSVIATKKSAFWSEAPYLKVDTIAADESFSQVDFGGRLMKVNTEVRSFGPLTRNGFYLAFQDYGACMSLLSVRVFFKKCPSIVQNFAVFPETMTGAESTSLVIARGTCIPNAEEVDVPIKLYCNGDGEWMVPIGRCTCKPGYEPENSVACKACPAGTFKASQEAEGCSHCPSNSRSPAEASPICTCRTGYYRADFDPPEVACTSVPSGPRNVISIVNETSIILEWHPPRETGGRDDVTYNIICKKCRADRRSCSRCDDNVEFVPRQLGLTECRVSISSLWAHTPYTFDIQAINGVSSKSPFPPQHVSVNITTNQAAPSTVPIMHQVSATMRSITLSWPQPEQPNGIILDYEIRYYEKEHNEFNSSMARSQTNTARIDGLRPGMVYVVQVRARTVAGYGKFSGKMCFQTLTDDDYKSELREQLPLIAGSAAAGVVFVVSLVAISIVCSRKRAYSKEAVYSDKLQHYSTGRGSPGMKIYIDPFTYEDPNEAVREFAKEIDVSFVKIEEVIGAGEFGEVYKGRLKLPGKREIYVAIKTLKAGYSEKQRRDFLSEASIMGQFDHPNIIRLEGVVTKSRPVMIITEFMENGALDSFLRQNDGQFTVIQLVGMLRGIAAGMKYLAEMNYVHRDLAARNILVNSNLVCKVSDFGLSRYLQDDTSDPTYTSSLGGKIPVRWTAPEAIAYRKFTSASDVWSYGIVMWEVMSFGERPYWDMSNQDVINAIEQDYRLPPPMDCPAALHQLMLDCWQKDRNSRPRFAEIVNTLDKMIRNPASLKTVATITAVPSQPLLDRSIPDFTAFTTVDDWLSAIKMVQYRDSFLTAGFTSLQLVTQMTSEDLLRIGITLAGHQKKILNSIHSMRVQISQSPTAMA
ENDPOINT_LABEL: residual activity
Number first, unit second: that is the form wanted.

Use these answered entries as a reference point.
C[C@@H](N)[C@H]1CC[C@H](C(=O)Nc2ccncc2)CC1    99%
Oc1ccc(Nc2nc(-c3ccc(Cl)cc3)cs2)cc1    78%
c1ccc(-c2n[nH]cc2-c2ccnc3ccccc23)nc1    105%
Cc1ccc(S(=O)(=O)/C=C/C#N)cc1    92%

Problem: Param item = "Oc1c2ccccc2c2c3c(cccc13)N=N2" ; retrieve measured residual activity.
Result: 29%

Problem: Return reported residual activity; argument: "Nc1nc(Nc2ccc(S(N)(=O)=O)cc2)nn1C(=S)Nc1c(F)cccc1F"
Result: -1%

Problem: Which residual activity value belongs to "Cc1nc2cc3nc(-c4cccs4)cnc3cc2n1C" ?
Result: 91%

Problem: Form field: reported residual activity of "COc1cc2ncnc(Nc3ccc(NC(=O)c4ccccc4)cc3)c2cc1OC"
Result: 83%

Origin of the recorded values: ChEMBL document CHEMBL2218924
